All figures here come from ChEMBL document CHEMBL5584205.

- Experimental Target: Neutrophil elastase (Homo sapiens, UniProt P08246)
- Sequence (P08246 whole entry): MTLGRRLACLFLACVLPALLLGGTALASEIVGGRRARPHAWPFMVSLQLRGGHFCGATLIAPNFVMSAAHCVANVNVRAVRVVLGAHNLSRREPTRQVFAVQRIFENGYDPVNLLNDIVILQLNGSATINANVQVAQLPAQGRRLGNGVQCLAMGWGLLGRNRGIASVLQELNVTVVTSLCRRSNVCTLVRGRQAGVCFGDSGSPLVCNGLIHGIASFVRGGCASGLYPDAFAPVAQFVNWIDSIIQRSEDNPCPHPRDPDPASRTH
- Method Description: Inhibition of human neutrophil elastase by enzymatic assay
Measured IC50 of individual entries
Write the answer as a number in µM, unit excluded.

Here is how some compounds turned out for IC50.
Compound	Recorded Value
CC(NC(=O)c1ccccc1NCc1c(O)ccc2ccccc12)c1ccccc1 (stereo not drawn)	26.2
COC(=O)[C@H](Cc1ccccc1)NC(=O)c1ccccc1/N=N/c1c(O)ccc2ccccc12	31.2
CC(NC(=O)c1ccccc1/N=C/c1c(O)ccc2ccccc12)c1ccccc1 (stereo not drawn)	24.5

Assign IC50 to the following record: O=C(N[C@H](C(=O)O)c1ccccc1)c1ccccc1/N=N/c1c(O)ccc2ccccc12 16.8

Answer with reported IC50 of COC(=O)[C@@H](NC(=O)c1ccccc1/N=N/c1c(O)ccc2ccccc12)c1ccccc1 18

###

- Experimental Target: Myeloblastin (Homo sapiens, UniProt P24158)
- Sequence (P24158 whole entry): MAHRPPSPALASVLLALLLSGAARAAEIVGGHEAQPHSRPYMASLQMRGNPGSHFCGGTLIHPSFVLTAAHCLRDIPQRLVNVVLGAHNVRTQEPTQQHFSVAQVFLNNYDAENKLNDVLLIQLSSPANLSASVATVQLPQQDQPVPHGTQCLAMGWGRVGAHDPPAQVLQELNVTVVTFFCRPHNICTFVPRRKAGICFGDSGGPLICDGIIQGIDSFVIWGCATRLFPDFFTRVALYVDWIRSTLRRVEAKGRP
Measure Name: IC50 (µM)
Supply the numeric figure in µM, leaving out any unit text.

Specify IC50 for O=C(N[C@H](C(=O)O)c1ccccc1)c1ncccc1/N=N/c1c(O)ccc2ccccc12 and stop. 20.7

###

- Experimental Target: NAD-dependent protein deacetylase sirtuin-2 (Homo sapiens, UniProt Q8IXJ6)
- Sequence (Q8IXJ6 whole entry): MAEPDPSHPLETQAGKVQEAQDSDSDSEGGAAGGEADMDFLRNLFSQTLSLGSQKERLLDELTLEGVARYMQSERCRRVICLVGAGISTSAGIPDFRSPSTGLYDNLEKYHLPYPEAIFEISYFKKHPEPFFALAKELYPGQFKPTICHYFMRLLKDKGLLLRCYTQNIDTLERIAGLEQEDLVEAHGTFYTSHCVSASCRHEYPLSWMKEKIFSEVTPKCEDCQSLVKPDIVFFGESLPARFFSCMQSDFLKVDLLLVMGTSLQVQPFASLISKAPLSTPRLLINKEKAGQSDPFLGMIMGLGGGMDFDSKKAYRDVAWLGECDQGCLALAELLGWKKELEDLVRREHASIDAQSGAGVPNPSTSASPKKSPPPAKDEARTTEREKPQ
Measure Name: IC50 (µM)
The response must be a number in µM with no trailing unit.

Give the observed IC50 of O=C(N[C@H](C(=O)O)c1ccccc1)c1ncccc1/N=N/c1c(O)ccc2ccccc12 for NAD-dependent protein deacetylase sirtuin-2 (Homo sapiens, UniProt Q8IXJ6). 2.42
